Molecular target: APOL1 G2 (Homo sapiens, UniProt O14791, DEL388-389)
Sequence (O14791 with tags, fused parts or gaps DEL388-389): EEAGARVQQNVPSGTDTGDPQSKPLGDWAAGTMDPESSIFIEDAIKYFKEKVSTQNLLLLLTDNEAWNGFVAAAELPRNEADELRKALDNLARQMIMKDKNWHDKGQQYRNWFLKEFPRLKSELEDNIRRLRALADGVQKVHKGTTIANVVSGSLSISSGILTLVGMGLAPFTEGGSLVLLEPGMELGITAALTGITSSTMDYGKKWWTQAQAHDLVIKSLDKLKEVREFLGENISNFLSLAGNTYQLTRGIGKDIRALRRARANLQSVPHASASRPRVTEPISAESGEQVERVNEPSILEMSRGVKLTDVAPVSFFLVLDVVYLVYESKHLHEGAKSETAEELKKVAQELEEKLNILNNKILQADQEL
Experiment: Rescue of HEK293 cell death caused by overexpression of APOL1 (CellTiter-Glo luminescence), HEK293/T-REx APOL1 G2/clone #2
Conditions: reversal of cell death caused by overexpression of APOL1; geometric mean of at least 2 assay runs, † = single assay run (technical duplicate)
Procedure: A HEK293 clonal cell line overexpressing APOL1 G2 (HEK293/T-REx APOL1 G2/clone #2) was maintained in 1×DMEM-GlutaMax (Gibco, 10569-010) media with 10% tetracycline-free FBS (Takara Bio USA, 631101), 5 μg/mL Blasticidin (Gibco, A1113903), and 100 μg/mL Zeocin (Invitrogen, R25001) in T75 flasks. […] The suspension was gently mixed, and cells were counted using a Countess Cell Counting Chamber (Invitrogen). […] Luminescence was measured on an Envision plate reader. […]
# note: boundary value 900 nM maps to f; EC50 below it maps to t

Check out these entries, answers already filled in.
- COMPOUND: "CN(c1ccc(OC[C@@H](O)CN2CCC(c3cccc(Cl)c3)C2)cc1)S(C)(=O)=O (single isomer, unassigned) [Compound 75]"
  DISCRETE LABEL: "f"
- COMPOUND: "CN(c1ccc(OC[C@@H](O)CNCCc2ccccc2OC(F)F)cc1)S(C)(=O)=O"
  DISCRETE LABEL: "f"
- COMPOUND: "CC1(C)CC(COc2ccc(S(C)(=O)=O)cc2)CN1CCc1cccc(Cl)c1 (single isomer, unassigned) [Compound 44]"
  DISCRETE LABEL: "f"

Identify whether the compound COC1CCN(CCc2cccc(Cl)c2)CC1COc1ccc(S(C)(=O)=O)cc1 (single isomer, unassigned) [Compound 35] records EC50 below 900 nM. f

Cool, now C[C@H]1CN(CCc2cccc(Cl)c2)C[C@H]1COc1ccc(S(C)(=O)=O)cc1 (single isomer, unassigned) f

Quick one: `C[C@@H]1CN(CCc2cc(Cl)cc(C#N)c2)C[C@H]1COc1ccc(S(=O)(=O)CCS(C)(=O)=O)cc1` t
